Ref: the supplement of paper PMC13380429

- System: HepG2
- test.details: cell viability relative to DMSO; higher = less toxic
- test.context: 72 h; 10 nM
Please respond with reported cell viability for every item in the list.
A complete answer gives the number followed by the unit.

`COc1cccc([C@H](O)C2CCN(CCc3ccc(F)cc3)CC2)c1OC` yielded cell viability of 99.9%

According to the records, this compound `NCCCC[C@H](NC(=O)[C@@H]1CCCN1C(=O)[C@@H]1CSSC[C@H](NC(=O)CNC(=O)CNC(=O)CN)C(=O)N[C@@H](Cc2ccc(O)cc2)C(=O)N[C@@H](Cc2ccccc2)C(=O)N[C@@H](CCC(N)=O)C(=O)N[C@@H](CC(N)=O)C(=O)N1)C(=O)NCC(N)=O` displays cell viability of 105%

According to the records, this compound `Cc1ccnc(NS(=O)(=O)c2ccc(N)cc2)n1` displays cell viability of 94.1%

Reported cell viability of `CCN(CC)CCOC(=O)C1(C2CCCCC2)CCCCC1` : 97.6%
